target: T1, human GPC3-His protein (human, UniProt P51654 25-559); assay: SPR, antibody captured on Protein A chip, human GPC3-His analyte;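 further: measured at 25 °C flow cell, human GPC3-His injected at five concentrations up to 200 nM, 240 s association, up to 600 s dissociation, double-referenced, fitted to Langmuir 1:1 model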
T1 construct: also called human GPC3 protein; not shown: His tag
measurement_type: kon

binder | measurement_type | result
F1.92.17 (antibody, human IgG1, kappa, V domains shown, Human-murine chimeric antibody) VH: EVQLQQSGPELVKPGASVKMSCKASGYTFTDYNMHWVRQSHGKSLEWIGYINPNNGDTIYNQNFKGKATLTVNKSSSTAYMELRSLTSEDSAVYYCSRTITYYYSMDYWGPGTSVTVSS VL: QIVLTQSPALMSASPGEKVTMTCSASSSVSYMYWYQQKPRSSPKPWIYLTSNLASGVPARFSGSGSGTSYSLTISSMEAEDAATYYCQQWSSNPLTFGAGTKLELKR | kon | 22800 M⁻¹ s⁻¹

Sample F4.26.1 (antibody, human IgG1, kappa, V domains shown, Human-murine chimeric antibody) VH: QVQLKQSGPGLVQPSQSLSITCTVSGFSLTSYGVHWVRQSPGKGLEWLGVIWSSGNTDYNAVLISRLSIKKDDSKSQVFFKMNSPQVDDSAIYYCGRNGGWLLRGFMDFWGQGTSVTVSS VL: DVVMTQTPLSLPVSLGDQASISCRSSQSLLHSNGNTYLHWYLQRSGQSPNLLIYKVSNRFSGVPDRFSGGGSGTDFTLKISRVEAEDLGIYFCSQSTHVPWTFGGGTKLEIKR ; kon observed: 197000 M⁻¹ s⁻¹
